- assay-system: T1, cyno PRLR (Biacore antigen) (cyno, UniProt A0A2K5WXK1 25-234)
- T1 construct: also called cyPRLR
- T1 sequence: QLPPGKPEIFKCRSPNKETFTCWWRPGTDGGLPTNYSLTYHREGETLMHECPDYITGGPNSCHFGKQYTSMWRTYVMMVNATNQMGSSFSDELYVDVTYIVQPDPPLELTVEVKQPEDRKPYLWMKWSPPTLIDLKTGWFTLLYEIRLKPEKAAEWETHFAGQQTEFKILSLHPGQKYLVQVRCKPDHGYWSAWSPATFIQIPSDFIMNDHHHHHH
- assay: SPR Biacore
Kindly state kon for each of the entries shown.
Respond with a number, then the unit of measure.

chAb6 (antibody, human IgG1, kappa, V domains shown, chimeric, murine variable and human G1/kappa constant regions) VH: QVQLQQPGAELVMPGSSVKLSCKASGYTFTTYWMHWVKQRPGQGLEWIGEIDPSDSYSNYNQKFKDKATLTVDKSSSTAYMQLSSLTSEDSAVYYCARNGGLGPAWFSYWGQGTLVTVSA VL: DIVMTQSQKFMSTTVGDRVSITCKASQYVGTAVAWYQQKPGQSPKLLIYSASNRYTGVPDRFTDSGSGTDFTLTISNLQSEDLADYFCQQYSSYPWTFGGGTKLEIKT :: 1.3e+06 M⁻¹ s⁻¹

Memo: Ab54 (antibody, human IgG1, kappa, V domains shown, humanized from Ab7 (back mutations on Ab39); G1; also called Ab4 HC.1a.3 and Ab4 LC.1a) VH: EVQLVQSGAEVKKPGSSVKVSCKASGYTFTSYWIHWVRQAPGQGLEWIGEIDPSDSYTNYNQKFKGRATLTVDKSSSTAYMELSSLRSEDTAVYYCGRSFFTNWFAYWGQGTLVTVSS VL: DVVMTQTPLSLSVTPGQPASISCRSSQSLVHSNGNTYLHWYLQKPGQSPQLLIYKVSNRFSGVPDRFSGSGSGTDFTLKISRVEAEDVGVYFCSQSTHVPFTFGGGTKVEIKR , reported kon: 140000 M⁻¹ s⁻¹
